- testProtocol: pharmacokinetics of 16 ginsenosides in rat plasma after oral administration of RGS
- Type: in vivo
- conditionsUsed: SD, rat, plasma, po, 100 mg/kg, normal rats, oral RGS single dose 100 mg/kg, plasma, mean ± S.D., n = 5; read-out: T1/2 (converted)
The entries below are paired with their reported half-life.
I only need the number, in h, no unit after it.

Solved cases below.
CC(C)=CCC=C(C)C1CCC2(C)C1C(O)CC1C3(C)CCC(OC4OC(CO)C(O)C(O)C4OC4OC(CO)C(O)C(O)C4O)C(C)(C)C3CCC12C (centres unmarked) :: 17.1
CC(C)=CCCC(C)(OC1OC(COC2OCC(O)C(O)C2O)C(O)C(O)C1O)C1CCC2(C)C1C(O)CC1C3(C)CCC(OC4OC(CO)C(O)C(O)C4OC4OC(CO)C(O)C(O)C4O)C(C)(C)C3CCC12C (centres unmarked) :: 6.5
CC(C)=CCCC(C)(OC1OC(CO)C(O)C(O)C1O)C1CCC2(C)C1C(O)CC1C3(C)CCC(O)C(C)(C)C3C(OC3OC(CO)C(O)C(O)C3OC3OC(C)C(O)C(O)C3O)CC12C (centres unmarked) :: 12.3

-- ask Specify measured half-life for CC(C)=CCCC(C)(OC1OC(CO)C(O)C(O)C1O)C1CCC2(C)C1C(O)CC1C3(C)CCC(O)C(C)(C)C3C(OC3OC(CO)C(O)C(O)C3O)CC12C (centres unmarked) .
-- reply 9.6

-- ask Specify measured half-life for CC(C)=CCCC(C)(OC1OC(COC2OC(CO)C(O)C(O)C2O)C(O)C(O)C1O)C1CCC2(C)C1C(O)CC1C3(C)CCC(OC4OC(CO)C(O)C(O)C4OC4OC(CO)C(O)C(O)C4O)C(C)(C)C3CCC12C (centres unmarked) .
-- reply 4.3

* * *

- testProtocol: pharmacokinetics of 16 ginsenosides in rat plasma after oral administration of RGS
- Format: in vivo
- conditionsUsed: SD, rat, plasma, po, 100 mg/kg, normal rats, oral RGS single dose 100 mg/kg, plasma, mean ± S.D., n = 5; read-out: MRT
measuredProperty: MRT
Value and unit, in that order.

Solved cases below.
CC(C)=CCC=C(C)C1CCC2(C)C1C(O)CC1C3(C)CCC(OC4OC(CO)C(O)C(O)C4OC4OC(CO)C(O)C(O)C4O)C(C)(C)C3CCC12C (centres unmarked) :: 22.2 h
CC(C)=CCCC(C)(OC1OC(COC2OC(CO)C(O)C(O)C2O)C(O)C(O)C1O)C1CCC2(C)C1C(O)CC1C3(C)CCC(OC4OC(CO)C(O)C(O)C4OC4OC(CO)C(O)C(O)C4O)C(C)(C)C3CCC12C (centres unmarked) :: 6.2 h
CC(C)=CCCC(C)(OC1OC(CO)C(O)C(O)C1O)C1CCC2(C)C1C(O)CC1C3(C)CCC(O)C(C)(C)C3C(OC3OC(CO)C(O)C(O)C3O)CC12C (centres unmarked) :: 15.6 h
CC(C)=CCCC(C)(OC1OC(CO)C(O)C(O)C1O)C1CCC2(C)C1C(O)CC1C3(C)CCC(O)C(C)(C)C3C(OC3OC(CO)C(O)C(O)C3OC3OC(C)C(O)C(O)C3O)CC12C (centres unmarked) :: 9.6 h

Here is another molecule to look at.
-- ask Specify measured MRT for CC(C)=CCCC(C)(OC1OC(COC2OC(CO)C(O)C2O)C(O)C(O)C1O)C1CCC2(C)C1C(O)CC1C3(C)CCC(OC4OC(CO)C(O)C(O)C4OC4OC(CO)C(O)C(O)C4O)C(C)(C)C3CCC12C (centres unmarked) .
-- reply 9.6 h
